Origin of the recorded values: paper PMC6274284

Target: hGRX1 (Homo sapiens, UniProt P35754, C83S)
Sequence (P35754 whole entry C83S, looked up): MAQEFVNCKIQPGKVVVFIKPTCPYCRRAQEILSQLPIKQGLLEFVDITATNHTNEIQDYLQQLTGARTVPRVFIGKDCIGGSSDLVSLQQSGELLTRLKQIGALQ
Test: biochemical
Assignment: determine reported Kd for the given molecules.
// note: answer is a bare numeric in mM

## Task Quick check: Kd of Cn1nc(C(=O)O)cc1-c1ccccc1 ?
## Result 5.22

## Task Try the molecule O=C(O)c1ccc(-n2cccc2)cc1
## Result 2.45
